- method: Plasma pharmacokinetics of TG101348, non-compartmental analysis
- Format: in vivo, human
- measurementConditions: human, plasma, oral; 120 mg/day (n = 3); multiple daily doses; Cycle 1, Day 28; mean; read-out: T1/2 (terminal half-life) (converted)
Structures can show the parent of a compound that is named as a salt.

{"compound": "Cc1cnc(Nc2ccc(OCCN3CCCC3)cc2)nc1Nc1cccc(S(=O)(=O)NC(C)(C)C)c1 [TG101348, dihydrochloride monohydrate]", "half-life / h": 24.4}

---

- method: Plasma pharmacokinetics of TG101348, non-compartmental analysis
- Assay type: in vivo, human
- measurementConditions: human, plasma, oral; 30 mg/day (n = 3); multiple daily doses; Cycle 1, Day 28; mean
Where a name gives a salt, the structure may show the parent alone.

{"molecule": "Cc1cnc(Nc2ccc(OCCN3CCCC3)cc2)nc1Nc1cccc(S(=O)(=O)NC(C)(C)C)c1 [TG101348, dihydrochloride monohydrate]", "Cmax, ng/mL": 81.8}

---

- method: Plasma pharmacokinetics of TG101348, non-compartmental analysis
- Type: in vivo, human
- measurementConditions: human, plasma, oral; 30 mg/day (n = 3); multiple daily doses; Cycle 1, Day 28; median
Counter-ions that a name gives are not always drawn.

{"compound": "Cc1cnc(Nc2ccc(OCCN3CCCC3)cc2)nc1Nc1cccc(S(=O)(=O)NC(C)(C)C)c1 [TG101348, dihydrochloride monohydrate]", "Tmax / h": 2}

---

- method: Plasma pharmacokinetics of TG101348, non-compartmental analysis
- Type: in vivo, human
- measurementConditions: human, plasma, oral; 30 mg/day (n = 3); multiple daily doses; Cycle 1, Day 28; mean
Counter-ions that a name gives are not always drawn.
readoutName: AUC(0-t) (ng·h/mL)

{"compound": "Cc1cnc(Nc2ccc(OCCN3CCCC3)cc2)nc1Nc1cccc(S(=O)(=O)NC(C)(C)C)c1 [TG101348, dihydrochloride monohydrate]", "experimentalValue": 807}

---

- method: Plasma pharmacokinetics of TG101348, non-compartmental analysis
- Format: in vivo, human
- measurementConditions: human, plasma, oral; 520 mg/day (n = 3); multiple daily doses; Cycle 1, Day 28; mean
Where a name gives a salt, the structure may show the parent alone.

{"compound": "Cc1cnc(Nc2ccc(OCCN3CCCC3)cc2)nc1Nc1cccc(S(=O)(=O)NC(C)(C)C)c1 [TG101348, dihydrochloride monohydrate]", "Cmax": "3890 ng/mL"}

---

- method: Plasma pharmacokinetics of TG101348, non-compartmental analysis
- Format: in vivo, human
- measurementConditions: human, plasma, oral; 240 mg/day (n = 3); multiple daily doses; Cycle 1, Day 28; mean
Where a name gives a salt, the structure may show the parent alone.

{"compound": "Cc1cnc(Nc2ccc(OCCN3CCCC3)cc2)nc1Nc1cccc(S(=O)(=O)NC(C)(C)C)c1 [TG101348, dihydrochloride monohydrate]", "Cmax": "1800 ng/mL"}

---

- method: Plasma pharmacokinetics of TG101348, non-compartmental analysis
- Type: in vivo, human
- measurementConditions: human, plasma, oral; 360 mg/day (n = 3); multiple daily doses; Cycle 1, Day 28; mean
- Description: The concentration-time curves of TG101348 in plasma were evaluated by a non-compartmental analysis (with the use of WinNonlin® software, version 5.2).
Counter-ions that a name gives are not always drawn.

{"compound": "Cc1cnc(Nc2ccc(OCCN3CCCC3)cc2)nc1Nc1cccc(S(=O)(=O)NC(C)(C)C)c1 [TG101348, dihydrochloride monohydrate]", "AUC(0-t), ng·h/mL": 23900}

---

- method: Plasma pharmacokinetics of TG101348, non-compartmental analysis
- Format: in vivo, human
- measurementConditions: human, plasma, oral; 60 mg/day (n = 3); multiple daily doses; Cycle 1, Day 28; mean
Structures can show the parent of a compound that is named as a salt.

{"molecule": "Cc1cnc(Nc2ccc(OCCN3CCCC3)cc2)nc1Nc1cccc(S(=O)(=O)NC(C)(C)C)c1 [TG101348, dihydrochloride monohydrate]", "Cmax [ng/mL]": 257}

---

- method: Plasma pharmacokinetics of TG101348, non-compartmental analysis
- Format: in vivo, human
- measurementConditions: human, plasma, oral; 60 mg/day (n = 3); multiple daily doses; Cycle 1, Day 28; mean; read-out: T1/2 (terminal half-life) (converted)
Counter-ions that a name gives are not always drawn.
readoutName: half-life (min)

{"compound": "Cc1cnc(Nc2ccc(OCCN3CCCC3)cc2)nc1Nc1cccc(S(=O)(=O)NC(C)(C)C)c1 [TG101348, dihydrochloride monohydrate]", "readoutName": "half-life", "readingUnit": "min", "experimentalValue": 941}

---

- method: Plasma pharmacokinetics of TG101348, non-compartmental analysis
- Format: in vivo, human
- measurementConditions: human, plasma, oral; across all doses; read-out: Terminal phase half-life at steady state
Counter-ions that a name gives are not always drawn.

{"compound": "Cc1cnc(Nc2ccc(OCCN3CCCC3)cc2)nc1Nc1cccc(S(=O)(=O)NC(C)(C)C)c1 [TG101348, dihydrochloride monohydrate]", "half-life": "16 to 34 h"}

---

- method: Plasma pharmacokinetics of TG101348, non-compartmental analysis
- Format: in vivo, human
- measurementConditions: human, plasma, oral; 520 mg/day (n = 3); multiple daily doses; Cycle 1, Day 28; median
Counter-ions that a name gives are not always drawn.
readoutName: Tmax (h)

{"compound": "Cc1cnc(Nc2ccc(OCCN3CCCC3)cc2)nc1Nc1cccc(S(=O)(=O)NC(C)(C)C)c1 [TG101348, dihydrochloride monohydrate]", "experimentalValue": 4}

---

- method: Plasma pharmacokinetics of TG101348, non-compartmental analysis
- Type: in vivo, human
- measurementConditions: human, plasma, oral; 240 mg/day (n = 3); multiple daily doses; Cycle 1, Day 28; median
Where a name gives a salt, the structure may show the parent alone.

{"molecule": "Cc1cnc(Nc2ccc(OCCN3CCCC3)cc2)nc1Nc1cccc(S(=O)(=O)NC(C)(C)C)c1 [TG101348, dihydrochloride monohydrate]", "readingUnit": "h", "Tmax": 2}

---

- method: Plasma pharmacokinetics of TG101348, non-compartmental analysis
- Format: in vivo, human
- measurementConditions: human, plasma, oral; 800 mg/day (n = 5); multiple daily doses; Cycle 1, Day 28; mean
Structures can show the parent of a compound that is named as a salt.
readoutName: AUC(0-t) (ng·h/mL)

{"compound": "Cc1cnc(Nc2ccc(OCCN3CCCC3)cc2)nc1Nc1cccc(S(=O)(=O)NC(C)(C)C)c1 [TG101348, dihydrochloride monohydrate]", "experimentalValue": 70800}

---

- method: Plasma pharmacokinetics of TG101348, non-compartmental analysis
- Assay type: in vivo, human
- measurementConditions: human, plasma, oral; 60 mg/day (n = 3); multiple daily doses; Cycle 1, Day 28; mean
Where a name gives a salt, the structure may show the parent alone.

{"molecule": "Cc1cnc(Nc2ccc(OCCN3CCCC3)cc2)nc1Nc1cccc(S(=O)(=O)NC(C)(C)C)c1 [TG101348, dihydrochloride monohydrate]", "AUC(0-t), ng·h/mL": 2430}

---

- method: Plasma pharmacokinetics of TG101348, non-compartmental analysis
- Type: in vivo, human
- measurementConditions: human, plasma, oral; 120 mg/day (n = 3); multiple daily doses; Cycle 1, Day 28; mean
Structures can show the parent of a compound that is named as a salt.
readoutName: AUC(0-t) (ng·h/mL)

{"compound": "Cc1cnc(Nc2ccc(OCCN3CCCC3)cc2)nc1Nc1cccc(S(=O)(=O)NC(C)(C)C)c1 [TG101348, dihydrochloride monohydrate]", "readoutName": "AUC(0-t)", "experimentalValue": 7650}

---

- method: Plasma pharmacokinetics of TG101348, non-compartmental analysis
- Assay type: in vivo, human
- measurementConditions: human, plasma, oral; 240 mg/day (n = 3); multiple daily doses; Cycle 1, Day 28; mean
Counter-ions that a name gives are not always drawn.
readoutName: AUC(0-t) (ng·h/mL)

{"compound": "Cc1cnc(Nc2ccc(OCCN3CCCC3)cc2)nc1Nc1cccc(S(=O)(=O)NC(C)(C)C)c1 [TG101348, dihydrochloride monohydrate]", "readoutName": "AUC(0-t)", "experimentalValue": 26200}

---

- method: Plasma pharmacokinetics of TG101348, non-compartmental analysis
- Assay type: in vivo, human
- measurementConditions: human, plasma, oral; 360 mg/day (n = 3); multiple daily doses; Cycle 1, Day 28; mean; read-out: T1/2 (terminal half-life) (converted)
Structures can show the parent of a compound that is named as a salt.

{"molecule": "Cc1cnc(Nc2ccc(OCCN3CCCC3)cc2)nc1Nc1cccc(S(=O)(=O)NC(C)(C)C)c1 [TG101348, dihydrochloride monohydrate]", "half-life": "21.4 h"}

---

- method: Plasma pharmacokinetics of TG101348, non-compartmental analysis
- Format: in vivo, human
- measurementConditions: human, plasma, oral; 30 mg/day (n = 3); multiple daily doses; Cycle 1, Day 28; mean; read-out: T1/2 (terminal half-life) (converted)
Where a name gives a salt, the structure may show the parent alone.
readoutName: half-life (h)

{"compound": "Cc1cnc(Nc2ccc(OCCN3CCCC3)cc2)nc1Nc1cccc(S(=O)(=O)NC(C)(C)C)c1 [TG101348, dihydrochloride monohydrate]", "experimentalValue": 20.9}
